TEST_SYSTEM: Aldehyde dehydrogenase 1A1 (Homo sapiens) (UniProt P00352)
Sequence (P00352 whole entry, looked up): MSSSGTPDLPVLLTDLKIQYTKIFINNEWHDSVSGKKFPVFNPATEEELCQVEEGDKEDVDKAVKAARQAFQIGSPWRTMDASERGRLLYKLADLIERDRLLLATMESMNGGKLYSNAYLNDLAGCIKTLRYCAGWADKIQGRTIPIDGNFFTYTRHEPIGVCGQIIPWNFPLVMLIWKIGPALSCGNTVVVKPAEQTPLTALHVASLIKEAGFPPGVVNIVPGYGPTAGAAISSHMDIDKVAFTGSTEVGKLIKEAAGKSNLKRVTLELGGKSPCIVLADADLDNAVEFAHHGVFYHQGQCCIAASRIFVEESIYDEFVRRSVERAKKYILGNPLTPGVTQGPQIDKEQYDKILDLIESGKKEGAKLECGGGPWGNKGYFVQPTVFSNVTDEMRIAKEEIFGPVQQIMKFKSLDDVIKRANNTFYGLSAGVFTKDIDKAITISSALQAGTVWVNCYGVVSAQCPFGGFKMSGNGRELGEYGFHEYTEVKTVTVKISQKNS
ASSAY_TEXT: qHTS Assay for Inhibitors of Aldehyde Dehydrogenase 1 (ALDH1A1)
EXPERIMENTAL_SETUP: Purified ALDH1A1, NADH fluorescence, propionaldehyde substrate; series mostly up to 75.3 µM
The campaign covered roughly 220,000 compounds. About 16,000 (7.3%) were called active. Not shown: some 25% with an inconclusive outcome. Calls follow the shape of the dose curve; as a rule, active = well fitted inhibition curve with a large enough effect (not every such curve was filed as active); inconclusive = small, poorly fitted or top-dose-only effect, or another doubt; inactive = no such curve, though single readings can be large or run the other way. Only a selection was taken, and actives are over-represented in it overall.
Classes used: active, inactive

[
  {
    "MOLECULE": "Cc1ccnc(-n2sc3ccccc3c2=O)n1",
    "CLASS_ASSIGNMENT": "active"
  },
  {
    "MOLECULE": "CSc1ccc(CN(C)CC(=O)NCc2ccc(F)cc2)cc1",
    "CLASS_ASSIGNMENT": "inactive"
  },
  {
    "MOLECULE": "Cc1ccccc1-n1nnnc1SCCCC(=O)c1ccc(F)cc1",
    "CLASS_ASSIGNMENT": "active"
  },
  {
    "MOLECULE": "CN(Cc1ccccc1)C(=O)CCc1ccccc1",
    "CLASS_ASSIGNMENT": "inactive"
  },
  {
    "MOLECULE": "CCOC(=O)/C(=N\\Nc1ccccc1[N+](=O)[O-])c1csc(Nc2ccccc2)n1",
    "CLASS_ASSIGNMENT": "inactive"
  },
  {
    "MOLECULE": "C=C(C(C)=O)C(O)c1ccc([N+](=O)[O-])cc1 (stereo not drawn)",
    "CLASS_ASSIGNMENT": "inactive"
  },
  {
    "MOLECULE": "CCSc1nnc(NC(=O)c2ccc(C)cc2)s1",
    "CLASS_ASSIGNMENT": "inactive"
  },
  {
    "MOLECULE": "Cc1cc(C)n(CCNCc2c(C(=O)N3C[C@@H](C)O[C@@H](C)C3)nc3ccc(Cl)cn23)n1",
    "CLASS_ASSIGNMENT": "inactive"
  },
  {
    "MOLECULE": "Nc1c(Cl)cc(S(N)(=O)=O)cc1S(N)(=O)=O",
    "CLASS_ASSIGNMENT": "inactive"
  },
  {
    "MOLECULE": "O=C(/C=C/c1ccc(OCc2c(F)cccc2Cl)cc1)N1CCOCC1",
    "CLASS_ASSIGNMENT": "inactive"
  },
  {
    "MOLECULE": "CN1CCN(C(=O)CCc2ncc(C(F)(F)F)cc2Cl)CC1",
    "CLASS_ASSIGNMENT": "inactive"
  },
  {
    "MOLECULE": "N#Cc1c(-c2ccc(Cl)cc2)c2c([nH]c1=S)CCCC2",
    "CLASS_ASSIGNMENT": "inactive"
  },
  {
    "MOLECULE": "COc1ccc(NC(=O)N2CCCC(c3nc(-c4ccc(F)cc4)no3)C2)cc1 (stereo not drawn)",
    "CLASS_ASSIGNMENT": "inactive"
  },
  {
    "MOLECULE": "COc1cccc(N2C(=O)C3CCCN3C2c2ccc(F)cc2)c1 (stereo not drawn)",
    "CLASS_ASSIGNMENT": "inactive"
  },
  {
    "MOLECULE": "COCCn1c(N)c(N(Cc2ccccc2)C(=O)C2CCCCC2)c(=O)[nH]c1=O",
    "CLASS_ASSIGNMENT": "inactive"
  },
  {
    "MOLECULE": "CCO[C@H]1OC(C(=O)N2CCCCCCC2)=C[C@@H](c2ccc(C(F)(F)F)cc2)[C@@H]1CCCO",
    "CLASS_ASSIGNMENT": "inactive"
  },
  {
    "MOLECULE": "CC(=O)Nc1nc2ccccc2n1Cc1ccc(C)cc1",
    "CLASS_ASSIGNMENT": "inactive"
  },
  {
    "MOLECULE": "O=C(N1CCCC1)C12CC3CC(C1)CC(C(=O)N1CCCC1)(C3)C2",
    "CLASS_ASSIGNMENT": "inactive"
  },
  {
    "MOLECULE": "Cc1c(NC(=O)CSc2nnnn2-c2ccc(C(=O)O)cc2)c(=O)n(-c2ccccc2)n1C",
    "CLASS_ASSIGNMENT": "inactive"
  },
  {
    "MOLECULE": "COc1cc(OC)cc(C(=O)NC(=S)N2CCN(c3ccc(C(F)(F)F)cc3[N+](=O)[O-])CC2)c1",
    "CLASS_ASSIGNMENT": "inactive"
  },
  {
    "MOLECULE": "Cc1nc2ccccc2c(=O)n1CCCn1ccnc1",
    "CLASS_ASSIGNMENT": "inactive"
  },
  {
    "MOLECULE": "Cc1ccccc1C(=O)OC1OC(=O)C(Cl)=C1Nc1ccccc1 (stereo not drawn)",
    "CLASS_ASSIGNMENT": "inactive"
  },
  {
    "MOLECULE": "CSc1ccc(/C=N/N2CCN(Cc3ccccc3Cl)CC2)cc1",
    "CLASS_ASSIGNMENT": "inactive"
  }
]
